Reference for the values: patent US20230167182A1

Molecular target: T1, macaca IL6R-his protein (macaca mulatta)
T1 chain: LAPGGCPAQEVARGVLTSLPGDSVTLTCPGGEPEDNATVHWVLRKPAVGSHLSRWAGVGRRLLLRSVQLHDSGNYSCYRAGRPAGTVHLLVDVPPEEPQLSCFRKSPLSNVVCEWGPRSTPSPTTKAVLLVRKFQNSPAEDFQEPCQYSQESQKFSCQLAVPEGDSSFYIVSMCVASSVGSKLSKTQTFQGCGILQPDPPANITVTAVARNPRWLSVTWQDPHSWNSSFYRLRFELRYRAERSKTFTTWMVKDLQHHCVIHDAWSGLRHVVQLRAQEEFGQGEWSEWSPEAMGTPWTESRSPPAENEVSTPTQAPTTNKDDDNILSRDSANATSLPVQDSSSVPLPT
Experiment: SPR Biacore T200; mAb captured by anti-mouse IgG on CM5, antigen in flow, 1:1 fit
Entries and their kon
experimental.endpoint: kon

[[record]]
binder = "mouse anti-IL6R monoclonal antibody 1H7 (antibody, V domains shown, Mouse hybridoma mAb) VH: QVQLQQPGTELVKPGASVKLSCKASGYTFTNYWMHWVKQRPGQGLDWIGEINPTNGRTNYNENFKSKATLTVDKSSSTAYMQLSSLTSEDSAVYYCARLNTHYVFDSWGQGTTLTLSS VL: EIVLTQSPTTLAASPGEKITFTCSVSSSISSNYLHWYQQKPGFSPKLLISRTSTLASGVPARFSGSGSGTSYSLTIGTMEAEDVATYYCQQGSGIPFTFGSGTKLELK"
value_measured = "137000 M⁻¹ s⁻¹"

[[record]]
binder = "mouse anti-IL6R monoclonal antibody 1H9 (antibody, V domains shown, Mouse hybridoma mAb) VH: QVQLQQPGAELVKPGASVKLSCKASGYTFTSYWMHWVKLRPGQGLEWIGEINPTNGRTNYYEKFKNRATLTADKSSSTAYMQLSSLTFEDSAVYFCAKFHYSRWYFDVWGTGTTVTVSS VL: DIVMTQSQKFMSTSVGDRVSITCKASQNVGTAVVWYQQKPGQSPKLLINPASNRYTGVPDRFTGSGSGTDFTLTISNMQSEDLADYFCQQYSSYPLTFGAGTKLELK"
value_measured = "94100 M⁻¹ s⁻¹"

